Test system: CHO
Test Name: Cytotoxicity against CHO cells transfected with CYP1A1 assessed as growth inhibition after 96 hrs by MTT assay
Assay type: functional, cell-based
Experimental Context: Cricetulus griseus
For each entry below, report its pIC50 value.
Numbers only, as −log10 of the molar value.

Reference set, count: 5
| Compound | pIC50 |
| --- | --- |
| CC1([C@@H](OC(=O)c2cccc3ccccc23)C(N)=O)CO1 (stereo not given in full) | 5.05 |
| CC1([C@@H](OC(=O)c2ccc(F)c3ccccc23)C(N)=O)CO1 (stereo not given in full) | 5.70 |
| COc1cc(C(=O)O[C@H](C(N)=O)C2(C)CO2)c2cccc(C)c2c1 (stereo not given in full) | 5.49 |
| Cc1ccc(C(=O)O[C@@H](C(N)=O)C2(C)CO2)c2ccccc12 (stereo not given in full) | 5.05 |
| COc1ccc2c(OC)ccc(C(=O)O[C@@H](C(N)=O)C3(C)CO3)c2c1 (stereo not given in full) | 5.05 |

Take each entry in turn and give its pIC50.
1. C=C(C)[C@@H](OC(=O)c1cc(OC)cc2c(C)cccc12)C(N)=O
2. CC1([C@H](OC(=O)c2ccc(F)c3ccccc23)C(N)=O)CO1 (stereo not given in full)
3. COc1cc(C(=O)O[C@@H](C(N)=O)C2(C)CO2)c2cccc(C)c2c1 (stereo not given in full)

Solution:
1: 5.20; 2: 5.52; 3: 5.22
